Listed here are compounds together with their documented normalised viability.
Tested on: CAL-51
ASSAY_DETAILS: normalised viability (% of control), CellTiter-Blue; higher = more viable cells (about 100 = DMSO control)
SETUP_CONDITIONS: incubation time: 72 h
// return numeric value only (unit: %, not printed)

[
  {
    "COMPOUND": "C[C@]12CC[C@@H]3c4ccc(O)cc4C[C@@H](CCCCCCCCC[S+]([O-])CCCC(F)(F)C(F)(F)F)[C@H]3[C@@H]1CC[C@@H]2O (some centres undefined) [Fulvestrant] (1000 nM)",
    "normalised viability / %": 111
  },
  {
    "COMPOUND": "CO[C@H]1/C=C\\C=C(/C)C(=O)NC2=CC(=O)C(NCCN(C)C)=C(C[C@@H](C)C[C@H](OC)[C@H](O)[C@@H](C)/C=C(\\C)[C@@H]1OC(N)=O)C2=O [Alvespimycin] (100 nM)",
    "normalised viability / %": 34.7
  },
  {
    "COMPOUND": "O=C1CCC(N2C(=O)c3ccccc3C2=O)C(=O)N1 (centres undefined) [Thalidomide] (1000 nM)",
    "normalised viability / %": 84.8
  }
]

// compound Cn1c(CCCC(=O)O)nc2cc(N(CCCl)CCCl)ccc21 [Bendamustine] (1000 nM) , assay CAL-51, normalised viability value: 109

// compound COc1cc([C@@H]2c3cc4c(cc3[C@@H](O[C@@H]3O[C@@H]5CO[C@@H](C)O[C@H]5[C@H](O)[C@H]3O)[C@H]3COC(=O)[C@H]23)OCO4)cc(OC)c1O [Etoposide] (1000 nM) , assay CAL-51, normalised viability value: 35.4

The origin of these recorded values is the supplement of paper PMC4862054.
